test: Drug concentration in Swiss albino mouse plasma at 50 mg/kg, ip measured after 8 hrs by LC-MS/MS analysis; format: ADME, organism-based
MEASUREMENT LABEL: concentration at 8 h (nM)

INSERT INTO assay_data (molecule, measurement_label, value_units, reported_measurement) VALUES
  ('O=C(CNc1cccc2c1C(=O)N(C1CCC(=O)NC1=O)C2=O)NCCCOc1ccc(NC(=O)c2ccc(CN(C(=O)c3ccc4c(c3)OCC(=O)N4)C3CC3)cc2)nc1 (stereo unspecified)', 'concentration at 8 h', 'nM', 980);

---

test: Cmax in Swiss albino mouse at 50 mg/kg, ip by LC-MS/MS analysis; assay type: ADME, organism-based; design: dose 50 mg/kg, route ip; settings: in vivo
MEASUREMENT LABEL: Cmax

INSERT INTO results (compound, measurement_label, reported_measurement) VALUES
  ('O=C(CNc1cccc2c1C(=O)N(C1CCC(=O)NC1=O)C2=O)NCCCOc1ccc(NC(=O)c2ccc(CN(C(=O)c3ccc4c(c3)OCC(=O)N4)C3CC3)cc2)nc1 (stereo unspecified)', 'Cmax', '1350 nM');
